Tested on: LOX IMVI melanoma
Experiment: NCI-60 one-dose screen, 48 h
Details: 10 µM unless noted
Procedure: Growth inhibition of the LOX IMVI human tumor cell line is measured as a screen for anti-cancer activity. Cells are grown in 96 well plates and exposed to the test compound for 48 hours. Compounds are tested at a single concentration, which is 10^-5 M for most compounds. The reported endpoint is percent growth (GI% or GIPRCNT), where numbers from 0 - 100% represent growth inhibition, and numbers from -100% - 0 represent cell death. For example, a value of 40 represents 60% growth inhibition. […]
This is part of a sample that, as a whole, favours compounds with a hit. Of some 83,000 tested, about 20% had one in any assay. Activity calls are given as the source filed them. The calls were made as follows: active = growth percent below 10; inactive = the rest.
Outcome codes: true (active), false (inactive)

COMPOUND	SUBJECT OF TEST	GROUP LABEL
CC(C)CCC(=O)O[C@H]1CC[C@H]2[C@@H]3CCC4=CC(=O)CC[C@]4(C)[C@H]3CC[C@]12C	LOX IMVI melanoma	false
O=c1[nH]cc(N(CCCl)CCCl)c(=O)[nH]1	LOX IMVI melanoma	false
ClCCN(CCCl)Cc1ccc(Nc2ccnc3cc(Cl)ccc23)cc1	LOX IMVI melanoma	false
CCOC(=O)[C@@H](C)C[C@H](Cc1ccccc1)NC(=O)c1csc([C@@H](C[C@H](C(C)C)N(C)C(=O)[C@@H](NC(=O)[C@H]2CCCCN2C)C(C)(C)CC)OC(C)=O)n1	LOX IMVI melanoma	false
COc1cc2c(cc1OCCCCn1c(-c3cccs3)nc3ccccc31)N=C[C@@H]1CCCN1C2=O	LOX IMVI melanoma	true
CC[C@H](C)[C@H](NC(=O)[C@H]1CCCCN1C)C(=O)N(C)[C@H](CCc1nc(C(=O)N[C@@H](Cc2ccccc2)C[C@H](C)C(=O)OC)cs1)C(C)C	LOX IMVI melanoma	false
CC(=O)O[C@H]1CC[C@]2(C)[C@H]3CC[C@]4(C)[C@@H](OC(C)=O)CC[C@H]4[C@@H]3[C@@H](C)[C@]2(O)C1	LOX IMVI melanoma	false
COc1ccc(N(CC(=O)NCCC[Te]c2ccccc2)C(=O)CCSC2=C(C)C(=O)c3ccccc3C2=O)cc1	LOX IMVI melanoma	true
CN1C(=O)N[C@H]2[C@@H]3NC(=O)c4ccc(Br)n4[C@@H]3C[C@]21O	LOX IMVI melanoma	true
O=C(CC1(O)C(=O)Nc2ccccc21)c1ccc(C(=O)NCC2CCC3(CC2)OOC2(CCCCC2)OO3)cc1 (centres undefined)	LOX IMVI melanoma	false
Cc1cc(N(CCCl)CCCl)ccc1C=Nc1ccccc1-c1ccccc1	LOX IMVI melanoma	false
CCC1CC(O)c2c(O)c3c(c(O)c2C1O)C(=O)c1cccc(O)c1C3=O (centres undefined) (tested in a mixture with another compound)	LOX IMVI melanoma	true
C[C@]12CC[C@H]3[C@@H](C[C@@H]4SC(Nc5ccccc5)=N[C@@]45CC(O)CC[C@]35C)[C@@H]1CCC2O (some centres undefined)	LOX IMVI melanoma	true
Cc1cc(N(CCCl)CCCl)ccc1C=Nc1cccnc1	LOX IMVI melanoma	false
